Molecular target: Urease (Canavalia ensiformis) (UniProt P07374)
Sequence (P07374 whole entry, looked up): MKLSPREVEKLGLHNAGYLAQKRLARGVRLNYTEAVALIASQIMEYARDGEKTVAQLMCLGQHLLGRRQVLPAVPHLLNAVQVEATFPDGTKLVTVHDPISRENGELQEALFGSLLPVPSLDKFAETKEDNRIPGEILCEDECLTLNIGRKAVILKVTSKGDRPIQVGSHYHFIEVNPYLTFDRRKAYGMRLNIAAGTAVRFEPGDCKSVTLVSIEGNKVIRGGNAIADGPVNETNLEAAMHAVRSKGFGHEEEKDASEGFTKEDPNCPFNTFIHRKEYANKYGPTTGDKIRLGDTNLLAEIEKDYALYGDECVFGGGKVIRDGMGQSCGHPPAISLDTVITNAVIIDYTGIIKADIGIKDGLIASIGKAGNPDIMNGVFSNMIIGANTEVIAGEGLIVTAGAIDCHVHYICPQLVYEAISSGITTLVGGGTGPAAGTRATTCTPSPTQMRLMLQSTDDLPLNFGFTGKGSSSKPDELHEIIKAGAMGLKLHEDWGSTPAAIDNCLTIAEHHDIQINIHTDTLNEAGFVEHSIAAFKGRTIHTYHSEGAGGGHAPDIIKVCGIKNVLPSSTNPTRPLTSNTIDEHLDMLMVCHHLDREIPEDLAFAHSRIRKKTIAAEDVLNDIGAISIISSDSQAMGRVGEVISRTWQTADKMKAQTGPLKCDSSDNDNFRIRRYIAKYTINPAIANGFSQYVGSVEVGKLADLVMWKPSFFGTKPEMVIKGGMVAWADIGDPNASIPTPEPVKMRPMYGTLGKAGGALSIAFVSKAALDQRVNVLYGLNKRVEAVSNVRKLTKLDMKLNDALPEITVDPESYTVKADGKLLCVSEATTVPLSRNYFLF
Assay: Inhibition of Jack bean urease assessed as production of ammonia at 10 mM after 30 mins by indophenol method
EXPERIMENTAL_ENDPOINT: inhibition

- CHEMICAL_STRUCTURE: "Cc1ccc(/N=C2\\C(=O)Nc3ccc(Br)cc32)cc1/N=C1\\C(=O)Nc2ccc(Br)cc21"
  VALUE_REPORTED: "> 50%"
- CHEMICAL_STRUCTURE: "Cc1ccc2c(c1)/C(=N/c1ccc(C)c(/N=C3\\C(=O)Nc4ccc(C)cc43)c1)C(=O)N2"
  VALUE_REPORTED: "> 50%"
- CHEMICAL_STRUCTURE: "Cc1ccc(/N=C2\\C(=O)Nc3ccc(S(=O)(=O)O)cc32)cc1/N=C1\\C(=O)Nc2ccc(S(=O)(=O)O)cc21"
  VALUE_REPORTED: "> 50%"

---

Target: Urease (Canavalia ensiformis)
Sequence (P07374 whole entry): as the sequence (P07374 whole entry, looked up) above
Assay: Inhibition of Jack bean urease assessed as production of ammonia after 30 mins by indophenol method
pIC50: −log10 of the molar value.
Decision: pIC50 >= 6 yields 1.0, all other cases yield 0.0.

- CHEMICAL_STRUCTURE: "Cc1ccc(/N=C2\\C(=O)Nc3ccc(Br)cc32)cc1/N=C1\\C(=O)Nc2ccc(Br)cc21"
  ASSIGNED_CLASS: 1.0
- CHEMICAL_STRUCTURE: "Cc1ccc(/N=C2\\C(=O)Nc3ccc(F)cc32)cc1/N=C1\\C(=O)Nc2ccc(F)cc21"
  ASSIGNED_CLASS: 0.0
- CHEMICAL_STRUCTURE: "Cc1ccc(/N=C2\\C(=O)Nc3ccc(Cl)cc32)cc1/N=C1\\C(=O)Nc2ccc(Cl)cc21"
  ASSIGNED_CLASS: 1.0
- CHEMICAL_STRUCTURE: "Cc1ccc(/N=C2\\C(=O)Nc3ccc(S(=O)(=O)O)cc32)cc1/N=C1\\C(=O)Nc2ccc(S(=O)(=O)O)cc21"
  ASSIGNED_CLASS: 0.0
- CHEMICAL_STRUCTURE: "Cc1ccc2c(c1)/C(=N/c1ccc(C)c(/N=C3\\C(=O)Nc4ccc(C)cc43)c1)C(=O)N2"
  ASSIGNED_CLASS: 1.0
- CHEMICAL_STRUCTURE: "Cc1ccc(/N=C2\\C(=O)Nc3ccc([N+](=O)[O-])cc32)cc1/N=C1\\C(=O)Nc2ccc([N+](=O)[O-])cc21"
  ASSIGNED_CLASS: 0.0

---

Reported inhibition values for the following molecules.
Molecular target: Urease (Canavalia ensiformis) (UniProt P07374)
Test: Inhibition of Jack bean urease assessed as production of ammonia at 10 mM after 30 mins by indophenol method

- CHEMICAL_STRUCTURE: "Cc1ccc(/N=C2\\C(=O)Nc3ccccc32)cc1/N=C1\\C(=O)Nc2ccccc21"
  inhibition: "> 50%"
- CHEMICAL_STRUCTURE: "Cc1ccc(/N=C2\\C(=O)Nc3ccc(Cl)cc32)cc1/N=C1\\C(=O)Nc2ccc(Cl)cc21"
  inhibition: "> 50%"
- CHEMICAL_STRUCTURE: "Cc1ccc(/N=C2\\C(=O)Nc3ccc(F)cc32)cc1/N=C1\\C(=O)Nc2ccc(F)cc21"
  inhibition: "> 50%"
- CHEMICAL_STRUCTURE: "Cc1ccc(/N=C2\\C(=O)Nc3ccc([N+](=O)[O-])cc32)cc1/N=C1\\C(=O)Nc2ccc([N+](=O)[O-])cc21"
  inhibition: "> 50%"

---

Experiment: Antiproliferative activity against African green monkey Vero cells assessed as reduction in cell viability at 100 uM after 48 hrs by SRB assay
Format: cell-based
Conditions: chlorocebus sabaeus
Reported inhibition at 48 h, 100 µM values for the following compounds.

- CHEMICAL_STRUCTURE: "Cc1ccc(/N=C2\\C(=O)Nc3ccc(Br)cc32)cc1/N=C1\\C(=O)Nc2ccc(Br)cc21"
  inhibition at 48 h, 100 µM [%]: 18.7
- CHEMICAL_STRUCTURE: "Cc1ccc2c(c1)/C(=N/c1ccc(C)c(/N=C3\\C(=O)Nc4ccc(C)cc43)c1)C(=O)N2"
  inhibition at 48 h, 100 µM [%]: 13.4
- CHEMICAL_STRUCTURE: "Cc1ccc(/N=C2\\C(=O)Nc3ccc(Cl)cc32)cc1/N=C1\\C(=O)Nc2ccc(Cl)cc21"
  inhibition at 48 h, 100 µM [%]: 18.5
- CHEMICAL_STRUCTURE: "Cc1ccc(/N=C2\\C(=O)Nc3ccc(F)cc32)cc1/N=C1\\C(=O)Nc2ccc(F)cc21"
  inhibition at 48 h, 100 µM [%]: 22.1
- CHEMICAL_STRUCTURE: "Cc1ccc(/N=C2\\C(=O)Nc3ccccc32)cc1/N=C1\\C(=O)Nc2ccccc21"
  inhibition at 48 h, 100 µM [%]: 23.6
- CHEMICAL_STRUCTURE: "Cc1ccc(/N=C2\\C(=O)Nc3ccc(S(=O)(=O)O)cc32)cc1/N=C1\\C(=O)Nc2ccc(S(=O)(=O)O)cc21"
  inhibition at 48 h, 100 µM [%]: 11.7
- CHEMICAL_STRUCTURE: "CC[C@]1(O)C[C@H]2CN(CCc3c([nH]c4ccccc34)[C@@](C(=O)OC)(c3cc4c(cc3OC)N(C=O)[C@H]3[C@@](O)(C(=O)OC)[C@H](OC(C)=O)[C@]5(CC)C=CCN6CC[C@]43[C@@H]65)C2)C1"
  inhibition at 48 h, 100 µM [%]: 16.8
- CHEMICAL_STRUCTURE: "Cc1ccc(/N=C2\\C(=O)Nc3ccc([N+](=O)[O-])cc32)cc1/N=C1\\C(=O)Nc2ccc([N+](=O)[O-])cc21"
  inhibition at 48 h, 100 µM [%]: 10.9
